System: OVCAR-3 ovarian
Experiment: NCI tumour cell line growth inhibition, 48 h; in the data active = GI50 below about 0.43 µM; inactive = the rest
Parameter call: string, one of active, inactive

Prompt: Short answer needed: outcome of this test for `CC[C@H](C)[C@H](NC(=O)c1cccn1C)C(=O)N(C)[C@H](C[C@@H](OC(C)=O)c1nc(C(=O)N[C@@H](Cc2ccccc2)C[C@H](C)C(=O)OC)cs1)C(C)C` ?
Response: active

----------
Tested on: SF-539 CNS
Experiment: NCI tumour cell line growth inhibition, 48 h
Result type: GI50

Worked examples, 3 compounds total:
                                   compound  target_or_test_system  result_type  reported_measurement
0  CS(=O)(=O)N(c1cc(-c2ccc3ncnc(Nc4ccc(F)c(Cl)c4)c3c2)cnc1Cl)S(C)(=O)=O             SF-539 CNS         GI50               1.05 µM
1  CC1SC(c2ccc(Cl)cc2Cl)N(NC(=O)C(O)c2ccccc2)C1=O (centres undefined)             SF-539 CNS         GI50              > 100 µM
2  COc1cc2nccc(Oc3ccc(NC(=O)c4cn(C(C)C)c(=O)n(-c5ccc(F)cc5)c4=O)cc3F)c2cc1OC             SF-539 CNS         GI50                1.6 µM

Prompt: Find the recorded GI50 belonging to N#Cc1cccc(C2C3=C(COC3=O)N(CCO)c3cc4c(cc32)OCO4)c1 (centres undefined) and report it.
Response: 1.53 µM
